- System: MDA-N
- test_description: NCI tumour cell line growth inhibition, 48 h
Calls of active or inactive are those of the source. Cut-off read from the data, not from the text of the source: active = GI50 up to about 1.1 µM and inactive = higher.
Each item that follows carries a reported GI50.
parameter: GI50

CC(O)(c1ccccc1)c1nccc2ccccc12 (stereo unspecified)    23.4 µM (inactive)
CCCCCC1CC=CC(=O)O1 (stereo unspecified)    6.15 µM (inactive)
C=C(C)C(=O)OC1CC2(C)OC2CC(OC(C)=O)/C(C)=C/C2OC(=O)C(=C)C21 (stereo unspecified)    2.73 µM (inactive)
COc1cc(O)c2c(=O)c(OC)c(-c3ccc(OC)c(O)c3)oc2c1    73.1 µM (inactive)
O=C1NN(Cc2ccccc2)C(=O)N2CCC[C@@H]12    > 100 µM (inactive)
CC1=CC[C@H](C[C@H](C#CCCCC2OCCO2)O[Si](C(C)C)(C(C)C)C(C)C)C(=O)CC1    > 100 µM (inactive)
CC(C)(Cl)C(Cl)CC/C(CBr)=C(\Cl)CBr (stereo unspecified)    1.81 µM (inactive)
COC(C)(C)[C@@H](O)[C@H]1C[C@H](C)[C@@]2(CC[C@]3(C)[C@@H]2CC[C@@H]2[C@@]4(C)CC[C@@H](OC(C)=O)C(C)(C)[C@@H]4C[C@@H](OC4OC(COC(C)=O)C(O)C(O)C4O)[C@]23C)O1 (stereo partly specified)    5.43 µM (inactive)
CCO/C=C(\C(=O)OC)S(=O)(=O)c1ccc(C)cc1    > 100 µM (inactive)
O=c1c(-c2nc3ccccc3c3ccccc3c2=O)nc2ccccc2c2ccccc12    24.3 µM (inactive)
O=C(O)c1c(-c2c3ccc(=O)cc-3oc3cc(O)ccc23)cc2ccccc2c1-c1ccccc1    > 100 µM (inactive)
O=c1cc(/N=N/c2ccc(O)cc2)[nH]c(=O)[nH]1    > 100 µM (inactive)
O=C(C=P(c1ccccc1)(c1ccccc1)c1ccccc1)c1cccc(-c2cccc([N+](=O)[O-])c2)c1    2.49 µM (inactive)
N#Cc1nn(C(N)=O)c(N)c1C#N    > 100 µM (inactive)
COc1ccc(/N=C2\C(=N/c3ccc(OC)cc3)N(S(=O)(=O)c3ccccc3)C(=S)N2c2ccccc2)cc1    > 100 µM (inactive)
CC1=Cc2ccc(C)cc2C(=O)C1=O    4.18 µM (inactive)
